B1: PLD5 (parent)
chain: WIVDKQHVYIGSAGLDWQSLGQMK

- Variants of: B1
- assay summary: protein stability index of a GFP-peptide fusion (GPS, HEK-293T) (PSI 1-6); higher = more stable;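 note: lentivirally expressed fusions sorted by FACS into six bins by GFP to DsRed ratio, PSI derived from sequencing read proportions per bin multiplied by bin number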
- recorded conditions: c terminus: a fixed tail appended
Label t when protein stability index is at or above 2; otherwise label f.

- mutation spec: "I2P"
  discrete label: "t"
- mutation spec: "K24V"
  discrete label: "t"
- mutation spec: "W1Y"
  discrete label: "t"

Problem: Quick check: does "Q22H" have protein stability index greater than or equal to 2?
Result: t

Problem: Quick check: does "D16E" have protein stability index greater than or equal to 2?
Result: t

Problem: Quick check: does "D16I" have protein stability index greater than or equal to 2?
Result: f

Values were extracted from the supplement of paper PMC10567573.
